Experimental system: T1, DcR3 (UniProt O95407 30-300, limits assumed)
T1 construct: the construct is not described; also called decoy receptor DcR3; TNFRSF6B
T1 sequence (looked up): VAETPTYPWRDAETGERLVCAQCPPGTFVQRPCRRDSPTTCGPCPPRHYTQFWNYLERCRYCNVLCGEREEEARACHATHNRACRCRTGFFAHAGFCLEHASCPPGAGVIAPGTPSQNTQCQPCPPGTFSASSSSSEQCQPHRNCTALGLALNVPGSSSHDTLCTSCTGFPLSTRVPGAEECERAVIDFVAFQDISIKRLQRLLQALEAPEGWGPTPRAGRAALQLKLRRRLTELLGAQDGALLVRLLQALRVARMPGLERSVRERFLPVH
Test protocol: ELISA, DcR3
Recorded metric: Rel EC50

>  <Binder>
TL1W81 (His-TEV-TL1A K111S) (ligand, also called TL1W81 (K111S)) HHHHHHENLYFQGLKGQEFAPSHQQVYAPLRADGDKPRAHLTVVRQTPTQHFSNQFPALHWEHELGLAFTKNRMNYTNKFLLIPESGDYFIYSQVTFRGMTSECSEIRQAGRPNKPDSITVVITKVTDSYPEPTQLLMGTKSVCEVGSNWFQPIYLGAMFSLQEGDKLMVNVSDISLVDYTKEDKTFFGAFLL

>  <Recorded metric>
Rel EC50

>  <Result>
11.1 ratio (head: nM)

$$$$
>  <Binder>
TL1W98 (His-TEV-TL1A K173R) (ligand, also called TL1W98 (K173R)) HHHHHHENLYFQGLKGQEFAPSHQQVYAPLRADGDKPRAHLTVVRQTPTQHFKNQFPALHWEHELGLAFTKNRMNYTNKFLLIPESGDYFIYSQVTFRGMTSECSEIRQAGRPNRPDSITVVITKVTDSYPEPTQLLMGTKSVCEVGSNWFQPIYLGAMFSLQEGDKLMVNVSDISLVDYTKEDKTFFGAFLL

>  <Recorded metric>
Rel EC50

>  <Result>
6 ratio (head: nM)

$$$$
>  <Binder>
TL1W32 (His-TEV-hTL1A 72-251 Y188A) (ligand, also called TL1W32 (Y188A)) HHHHHHENLYFQGLKGQEFAPSHQQVYAPLRADGDKPRAHLTVVRQTPTQHFKNQFPALHWEHELGLAFTKNRMNYTNKFLLIPESGDYFIYSQVTFRGMTSECSEIRQAGRPNKPDSITVVITKVTDSAPEPTQLLMGTKSVCEVGSNWFQPIYLGAMFSLQEGDKLMVNVSDISLVDYTKEDKTFFGAFLL

>  <Recorded metric>
Rel EC50

>  <Result>
1.7 ratio (head: nM)

$$$$
>  <Binder>
TL1W131 (His-TEV-TL1A Y238E) (ligand, also called TL1W131 (Y238E)) HHHHHHENLYFQGLKGQEFAPSHQQVYAPLRADGDKPRAHLTVVRQTPTQHFKNQFPALHWEHELGLAFTKNRMNYTNKFLLIPESGDYFIYSQVTFRGMTSECSEIRQAGRPNKPDSITVVITKVTDSYPEPTQLLMGTKSVCEVGSNWFQPIYLGAMFSLQEGDKLMVNVSDISLVDETKEDKTFFGAFLL

>  <Recorded metric>
Rel EC50

>  <Result>
1.4 ratio (head: nM)

$$$$
>  <Binder>
TL1W130 (His-TEV-TL1A Y238R) (ligand, also called TL1W130 (Y238R)) HHHHHHENLYFQGLKGQEFAPSHQQVYAPLRADGDKPRAHLTVVRQTPTQHFKNQFPALHWEHELGLAFTKNRMNYTNKFLLIPESGDYFIYSQVTFRGMTSECSEIRQAGRPNKPDSITVVITKVTDSYPEPTQLLMGTKSVCEVGSNWFQPIYLGAMFSLQEGDKLMVNVSDISLVDRTKEDKTFFGAFLL

>  <Recorded metric>
Rel EC50

>  <Result>
3.7 ratio (head: nM)

$$$$
>  <Binder>
TL1W24 (His-TEV-hTL1A 72-251 F209A) (ligand, also called TL1W24 (F209A)) HHHHHHENLYFQGLKGQEFAPSHQQVYAPLRADGDKPRAHLTVVRQTPTQHFKNQFPALHWEHELGLAFTKNRMNYTNKFLLIPESGDYFIYSQVTFRGMTSECSEIRQAGRPNKPDSITVVITKVTDSYPEPTQLLMGTKSVCEVGSNWAQPIYLGAMFSLQEGDKLMVNVSDISLVDYTKEDKTFFGAFLL

>  <Recorded metric>
Rel EC50

>  <Result>
6.7 ratio (head: nM)

$$$$
